# Tested on: A431
# assay.remarks: LBPA endosome anti-LBPA integrated intensity (sum per cell), Z-score; higher = more LBPA staining
# condition.label: compound concentration in added solution (µM; 5 µl added to 20 µl cells): 10; 18 h
Structures can show the parent of a compound that is named as a salt.
Reported LBPA endosome anti-LBPA integrated intensity (z-score) values are given for each entry in this list.
parameter.measured: LBPA endosome anti-LBPA integrated intensity (z-score)

[
  {
    "molecule": "Nc1c2c(nc3ccccc13)CCCC2 [Tacrine hydrochloride]",
    "readout.value": 0.535
  },
  {
    "molecule": "Oc1c(I)cc(Cl)c2cccnc12",
    "readout.value": -0.492
  },
  {
    "molecule": "CC(C)(C)NC(=O)[C@@H]1C[C@@H]2CCCC[C@@H]2CN1C[C@@H](O)[C@H](Cc1ccccc1)NC(=O)[C@H](CC(N)=O)NC(=O)c1ccc2ccccc2n1 [Saquinavir mesylate]",
    "readout.value": 0.938
  },
  {
    "molecule": "CC(=O)N(CC(C)C(=O)O)c1c(I)cc(I)c(N)c1I (centres undefined)",
    "readout.value": -0.0668
  }
]
